- target system: human CD33 L197A (human, UniProt P20138 18-364)
- Sequence (P20138 18-364 L197A limits assumed): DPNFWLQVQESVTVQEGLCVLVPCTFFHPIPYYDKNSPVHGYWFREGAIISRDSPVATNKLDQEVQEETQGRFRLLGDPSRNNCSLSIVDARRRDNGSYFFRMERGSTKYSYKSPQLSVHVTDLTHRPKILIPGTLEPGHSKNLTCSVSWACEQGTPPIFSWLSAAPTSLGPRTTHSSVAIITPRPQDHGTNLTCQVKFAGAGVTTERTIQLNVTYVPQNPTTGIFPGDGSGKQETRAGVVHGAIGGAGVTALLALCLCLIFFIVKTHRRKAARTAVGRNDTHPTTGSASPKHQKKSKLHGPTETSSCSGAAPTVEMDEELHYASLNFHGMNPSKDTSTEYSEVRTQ
- method: alanine scan, flow cytometry, HEK293-T;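 further: antibody binding to each alanine-substituted CD33 mutant expressed transiently in HEK293-T, read as fluorescence minus background, mean of duplicates, relative to wild-type CD33 set as 100%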
test readout: Mean % WT Binding (%)

binder: Refmab #2 (antibody, V domains shown, In the alanine scan antibodies were used as IgG or Fab) VH: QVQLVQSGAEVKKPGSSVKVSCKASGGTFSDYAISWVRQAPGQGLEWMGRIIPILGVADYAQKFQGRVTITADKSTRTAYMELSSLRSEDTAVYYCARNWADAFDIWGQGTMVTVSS VL: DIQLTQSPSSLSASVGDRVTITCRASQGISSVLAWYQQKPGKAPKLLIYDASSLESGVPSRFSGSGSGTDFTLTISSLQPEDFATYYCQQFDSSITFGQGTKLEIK
test readout: Mean % WT Binding
quantity unit: %
recorded measurement: 125
